System: guinea-pig right ventricular muscle
Experiment: Guinea-pig right ventricular muscle preparation (Vmax of phase 0 of the action potential)
Type: cell-based, male guinea-pigs
Details: Cavia porcellus; stimulated at 1 Hz; 0 to 3×10^-4 M in modified Tyrodes solution; read-out: EC50 (50% reduction in Vmax)
measurement.name: IC50 (µM)
Reply numerically in µM, unit not repeated.

What the record says about CCCCCOc1ccccc1-c1nn(C)c(=N)nc1N : IC50 is 5.9

What the record says about CC(C)n1nc(-c2cccc(Cl)c2Cl)c(N)nc1=N : IC50 is 2.2

What the record says about Cn1nc(-c2cccc(Cl)c2Cl)c(N)nc1=N : IC50 is 130

###

Tested on: aconitine-induced ventricular arrhythmias in anaesthetised rats
Assay: animal or person
Type: in vivo, Male Wistar rats
Conditions: dose 10 mg/kg (i.v.); resting diastolic blood pressure
measurement.name: % decrease in DBP (%)
Reply numerically in %, unit not repeated.

> print(dat)
                                   compound   measurement.name  measured.result
1  O=C1NC(=O)C(c2ccccc2)(c2ccccc2)N1 [Phenytoin, reference compound]  % decrease in DBP                4

What the record says about COc1ccccc1-c1nn(C)c(=N)nc1N : % decrease in DBP is 8

What the record says about C=C[C@H]1C[N@@]2CC[C@H]1C[C@@H]2[C@@H](O)c1ccnc2ccc(OC)cc12 [Quinidine, reference compound] : % decrease in DBP is 43

What the record says about CCN(CC)CC(=O)Nc1c(C)cccc1C [Lidocaine, reference compound] : % decrease in DBP is 1

###

Test system: aconitine-induced ventricular arrhythmias in anaesthetised rats
Assay: animal or person
Format: in vivo, Male Wistar rats
Details: dose 1 mg/kg (i.v.); resting diastolic blood pressure
Tick MET if % decrease in DBP is 5% or greater. Tick NOT MET if % decrease in DBP is less than 5%.

// below: answered molecules
> print(dat)
                                   molecule                              study.target  class.label
1  CC(C)NCC(O)COc1cccc2ccccc12 (stereo not shown) [Propranolol, reference compound]  aconitine-induced ventricular arrhythmias in anaesthetised rats      NOT MET
2           Cn1nc(-c2cccc(Cl)c2Cl)c(N)nc1=N  aconitine-induced ventricular arrhythmias in anaesthetised rats          MET
3         CCCCCCCOc1ccccc1-c1nn(C)c(=N)nc1N  aconitine-induced ventricular arrhythmias in anaesthetised rats      NOT MET
4             CCCOc1ccccc1-c1nn(C)c(=N)nc1N  aconitine-induced ventricular arrhythmias in anaesthetised rats      NOT MET
5           CCCCCOc1ccccc1-c1nn(C)c(=N)nc1N  aconitine-induced ventricular arrhythmias in anaesthetised rats          MET
6       Cn1nc(-c2cc(Cl)cc(Cl)c2Cl)c(N)nc1=N  aconitine-induced ventricular arrhythmias in anaesthetised rats      NOT MET
7         CCCn1nc(-c2cccc(Cl)c2Cl)c(N)nc1=N  aconitine-induced ventricular arrhythmias in anaesthetised rats      NOT MET

Please turn your attention to the following entry.
Does CC(C)n1nc(-c2cccc(Cl)c2Cl)c(N)nc1=N have a reported % decrease in DBP of at least 5%?
MET

###

System: aconitine-induced ventricular arrhythmias in anaesthetised rats
Experiment: animal or person
Format: in vivo, Male Wistar rats
Conditions: dose 1 mg/kg (i.v.); resting diastolic blood pressure
Quick list: % decrease in DBP per entry.
Reply numerically in %, unit not repeated.

> print(dat)
                                   compound  measured.result
1  COc1ccc(CCN(C)CCCC(C#N)(c2ccc(OC)c(OC)c2)C(C)C)cc1OC (centres unmarked) [Verapamil, reference compound]               68
2   Cn1nc(-c2ccccc2Cl)c(N)nc1=N [Example 9]                4
3  CCCCCOc1ccc(-c2nn(C)c(=N)nc2N)cc1 [Example 14]                2
4  CCCCCn1nc(-c2cccc(Cl)c2Cl)c(N)nc1=N [Example 18]                1

What the record says about Cn1nc(-c2ccc(Cl)cc2Cl)c(N)nc1=N [Example 11] : % decrease in DBP is 7

###

Tested on: aconitine-induced ventricular arrhythmias in anaesthetised rats
Experiment: animal or person
Type: in vivo, Male Wistar rats
Conditions: dose 5 mg/kg (i.v.); resting diastolic blood pressure
measurement.name: % decrease in DBP
Returns: string containing the number followed by the unit.

Sample records with % decrease in DBP:
> print(dat)
                                   compound  measured.result
1    Cn1nc(-c2ccccc2I)c(N)nc1=N [Example 7]              13%
2     Cn1nc(-c2ccccc2)c(N)nc1=N [Example 5]               5%
3  Cn1nc(-c2cc(Cl)ccc2Cl)c(N)nc1=N [Example 2]              10%

What the record says about Cn1nc(-c2c(F)cccc2Cl)c(N)nc1=N [Example 6] : % decrease in DBP is 1%

###

System: aconitine-induced ventricular arrhythmias in anaesthetised rats
Experiment: animal or person
Format: in vivo, Male Wistar rats
Conditions: Rattus norvegicus, iv, 0.25 h, read-out: % increase in aconitine to elicit VT/VF
measurement.name: change in vivo at 5 mg/kg (%)
Reply numerically in %, unit not repeated.

Sample records with change in vivo at 5 mg/kg:
> print(dat)
                      entry.smiles  measured.result
1   Cn1nc(-c2c(F)cccc2Cl)c(N)nc1=N              149
2       Cn1nc(-c2ccccc2I)c(N)nc1=N              106
3  Cn1nc(-c2cc(Cl)ccc2Cl)c(N)nc1=N              440

Kindly review the next molecule as well.
What the record says about Cn1nc(-c2ccccc2)c(N)nc1=N : change in vivo at 5 mg/kg is 30
